biological target: T1, human lambda-5 (on the pre-BCR-expressing human pre-B cell line NALM-6) (human, UniProt P15814 38-213); assay: flow cytometry, saturation binding of recombinant chimeric mAb to NALM-6 cells
T1 construct: On NALM-6 cells lambda-5 stands in the pre-BCR together with VpreB and the mu heavy chain; also called IGLL1; lambda-5 subunit of the SLC of human pre-BCR
T1 sequence (P15814 38-213 limits assumed): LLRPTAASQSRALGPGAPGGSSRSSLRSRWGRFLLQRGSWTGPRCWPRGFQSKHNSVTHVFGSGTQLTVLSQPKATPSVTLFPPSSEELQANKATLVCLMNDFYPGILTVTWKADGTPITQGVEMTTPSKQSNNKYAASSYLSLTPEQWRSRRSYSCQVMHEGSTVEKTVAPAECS
pEC50: −log10 of the molar value.
PARAMETER MEASURED: pEC50

Record request: pEC50 value, item lambda-5 antibody 4-15E6 (recombinant mouse-human chimeric IgG1/kappa) (antibody, V domains shown, also called mAb 4-15E6) VH: EVQLEESGAELVRSGASVKLSCTASGFNIKDYYLHWVKQRPEQGLEWIGWIDPENGNTDYAPKFQGKATMTADTSSNTAYLQLSSLTSEDTAVYYCNEGYYDYDTDSAMDYWGQGTSVTVSS VL: DVLMTQTPLSLPVSLGDQASISCRSSQSLVHSDGITYLHWYLQKPGQSPKLLIYKVSNRFSGVPDRFSGSGSGTDFTLKISRVEAEDLGVYFCSQSTRVPWTFGGGTKLEIKR
> 7.52

Reference source for all entries: patent US20220265821A1
